A collection of compounds and their measured IC50
# Test system: Patient #1 B-ALL primary leukemia cells
# PROTOCOL TEXT: Cytotoxicity assay, primary sample Patient #1
# Assay type: cell-based, human
# CONDITION CONTEXT: Homo sapiens, 96 h, four days in culture, Alamar blue assay or automated microscopy, one complete study
I only need the number, in nM, no unit after it.

**Query** Dear colleague, please send me the reported IC50 for Cc1cc(Nc2cc(N3CCN(C)CC3)nc(/C=C/c3ccccc3)n2)n[nH]1 [ENMD-2076] when you can.
**Result** 100

**Query** Dear colleague, please send me the reported IC50 for Nc1nc(Nc2ccc(S(N)(=O)=O)cc2)nn1C(=O)c1c(F)cccc1F [JNJ-7706621] when you can.
**Result** 1000

**Query** Dear colleague, please send me the reported IC50 for CCN(CCCOc1ccc2c(Nc3cc(CC(=O)Nc4cccc(F)c4)n[nH]3)ncnc2c1)CCOP(=O)(O)O [AZD1152] when you can.
**Result** 0.005

====

# Tested on: C1 B-ALL cell line
# PROTOCOL TEXT: Cytotoxicity assay, C1
# Assay type: cell-based, human
# CONDITION CONTEXT: Homo sapiens, 96 h, four days in culture, Alamar blue assay or automated microscopy, ± SD, three experiments
A collection of compounds and their measured pIC50
In textbook form, pIC50 equals minus log to base ten of the concentration in mol/L.

- MOL SMILES: "CCN(CCCOc1ccc2c(Nc3cc(CC(=O)Nc4cccc(F)c4)n[nH]3)ncnc2c1)CCOP(=O)(O)O"
  MEASURED PARAMETER: "pIC50"
  MEASURED: 9.10

Next, consider the following compound.
**Query** Dear colleague, please send me the reported pIC50 for `Cc1nc(N)sc1-c1ccnc(Nc2ccc(N3CCOCC3)cc2)n1` when you can.
**Result** 6.70

====

# Tested on: C1 B-ALL cell line
# PROTOCOL TEXT: Cytotoxicity assay, C1
# Format: cell-based, human
# CONDITION CONTEXT: Homo sapiens, 96 h, four days in culture, Alamar blue assay or automated microscopy, ± SD, three experiments
MEASURED PARAMETER: pIC50
In textbook form, pIC50 equals minus log to base ten of the concentration in mol/L.

Examples with their reported pIC50 follow.
- MOL SMILES: "COc1cc(Nc2ncc3c(n2)-c2ccc(Cl)cc2C(c2c(F)cccc2OC)=NC3)ccc1C(=O)O"
  STUDY SYSTEM: "C1 B-ALL cell line"
  MEASURED: 8.52
- MOL SMILES: "Nc1nc(Nc2ccc(S(N)(=O)=O)cc2)nn1C(=O)c1c(F)cccc1F"
  STUDY SYSTEM: "C1 B-ALL cell line"
  MEASURED: 6.00
- MOL SMILES: "CO[C@@H](C(=O)N1Cc2n[nH]c(NC(=O)c3ccc(N4CCN(C)CC4)cc3)c2C1)c1ccccc1"
  STUDY SYSTEM: "C1 B-ALL cell line"
  MEASURED: 8.10

**Query** Dear colleague, please send me the reported pIC50 for `CCc1cccc(CC)c1NC(=O)N1Cc2n[nH]c(NC(=O)c3ccc(N4CCN(C)CC4)cc3)c2C1` when you can.
**Result** 7.00

Recorded values, source paper PMC4105567.
